# Test system: TNFα / p55 TNFα receptor (CD120a) (Homo sapiens)
# Experiment description: Binding ELISA: TNF-α binding to plastic coated TNF-R1
# Protocol conditions: 10^−5 M
# Procedure: Compounds were tested for their ability to bind to TNFα or inhibit the interaction of TNFα with its respective receptors; p55 and p75 TNFα receptor. […] Bound p55 or p75 receptor or recombinant human TNFα was detected by the addition of 200 μL of 3,3′,5,5′-tetramethylbenzidine (TMB) per well for 15 min. The plate was then read at 655 nm on a EL 800 universal Microplate reader (Bio-Tek, Mississauga, Canada). […]
Quantity: inhibition at 10 µM (%)
Numeric answer only, unit % assumed.

Record Oc1ccc(CCNc2nc(NCCCNc3nc(NCCc4ccc(O)cc4)nc(Nc4ccccc4)n3)nc(Nc3ccccc3)n2)cc1 . Reported inhibition at 10 µM: 3.95

Record Nc1ccc(CCNc2nc(NCCNc3nc(NCCc4ccc(N)cc4)nc(Nc4cccc(N)c4)n3)nc(Nc3cccc(N)c3)n2)cc1 . Reported inhibition at 10 µM: 10.4

Record Oc1ccc(CCNc2nc(NCCNc3nc(NCCc4ccc(O)cc4)nc(Nc4ccccc4)n3)nc(Nc3ccccc3)n2)cc1 . Reported inhibition at 10 µM: 28.9

Record Nc1ccc(CCNc2nc(Nc3ccc(CCNc4nc(NCCO)nc(Nc5cccc(N)c5)n4)cc3)nc(Nc3cccc(N)c3)n2)cc1 [Compound 19a] . Reported inhibition at 10 µM: -4

---

Consider the following compounds; for each one, report its pIC50.
# Tested on: peripheral blood mononuclear leukocytes (PBML)
# Experiment description: PBML protein synthesis (leucine)
# Type: cell-based, human
# Protocol conditions: Homo sapiens, Leukocyte, PWM stimulated PBML
Note: pIC50 values are expressed as the negative base-10 logarithm of concentration in M.

pIC50 of Oc1ccc(CCNc2nc(NCCNc3nc(NCCc4ccc(O)cc4)nc(Nc4ccccc4)n3)nc(Nc3ccccc3)n2)cc1 [Compound 1] , assay on peripheral blood mononuclear leukocytes (PBML), is 5.53

pIC50 of Nc1ccc(CCNc2nc(Nc3ccc(CCNc4nc(NCCO)nc(Nc5cccc(N)c5)n4)cc3)nc(Nc3cccc(N)c3)n2)cc1 [Compound 19a] , assay on peripheral blood mononuclear leukocytes (PBML), is 5.31

---

Consider the following compounds; for each one, report its inhibition at 10 µM.
# Test system: TNFα / p75 TNFα receptor (CD120b) (Homo sapiens)
# Sequence (P01375 77-233 limits assumed): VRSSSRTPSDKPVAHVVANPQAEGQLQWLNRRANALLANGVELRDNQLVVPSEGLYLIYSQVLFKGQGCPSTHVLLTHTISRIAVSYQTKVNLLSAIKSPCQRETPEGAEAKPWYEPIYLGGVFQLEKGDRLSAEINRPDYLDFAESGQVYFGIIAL
# Experiment description: Binding ELISA: TNF-α binding to plastic coated TNF-R2
# Protocol conditions: 10^−5 M
# Description: Compounds were tested for their ability to bind to TNFα or inhibit the interaction of TNFα with its respective receptors; p55 and p75 TNFα receptor. […] Bound p55 or p75 receptor or recombinant human TNFα was detected by the addition of 200 μL of 3,3′,5,5′-tetramethylbenzidine (TMB) per well for 15 min. The plate was then read at 655 nm on a EL 800 universal Microplate reader (Bio-Tek, Mississauga, Canada). […]
Numeric answer only, unit % assumed.

Record Nc1ccc(CCNc2nc(NCCNc3nc(NCCc4ccc(N)cc4)nc(Nc4cccc(N)c4)n3)nc(Nc3cccc(N)c3)n2)cc1 [Compound 7] . Reported inhibition at 10 µM: 43.3

Record NCCc1ccc(Nc2nc(NCCNc3nc(Nc4ccccc4)nc(Nc4ccc(CCN)cc4)n3)nc(Nc3ccccc3)n2)cc1 [Compound 4] . Reported inhibition at 10 µM: -86.7

Record Oc1ccc(CCNc2nc(NCCCNc3nc(NCCc4ccc(O)cc4)nc(Nc4ccccc4)n3)nc(Nc3ccccc3)n2)cc1 [Compound 25] . Reported inhibition at 10 µM: 4.8

Record CN(C)CCCC(=O)Oc1ccc(CCNc2nc(NCCNc3nc(NCCc4ccc(OC(=O)CCCN(C)C)cc4)nc(Nc4ccccc4)n3)nc(Nc3ccccc3)n2)cc1 [Compound 12] . Reported inhibition at 10 µM: -30.4

Record Cc1ccccc1Nc1nc(NCCNc2nc(NCCc3ccc(O)cc3)nc(Nc3ccccc3C)n2)nc(NCCc2ccc(O)cc2)n1 [Compound 5] . Reported inhibition at 10 µM: 21.2

Record Nc1ccc(CCNc2nc(Nc3ccc(CCNc4nc(NCCO)nc(Nc5cccc(N)c5)n4)cc3)nc(Nc3cccc(N)c3)n2)cc1 [Compound 19a] . Reported inhibition at 10 µM: 24.3

Record Oc1ccc(CCNc2nc(NCCNc3nc(NCCc4ccc(O)cc4)nc(Nc4ccccc4)n3)nc(Nc3ccccc3)n2)cc1 [Compound 1] . Reported inhibition at 10 µM: 38.4
